# system_tested: PDK-1 (Homo sapiens)
# Sequence (Q15118 30-436): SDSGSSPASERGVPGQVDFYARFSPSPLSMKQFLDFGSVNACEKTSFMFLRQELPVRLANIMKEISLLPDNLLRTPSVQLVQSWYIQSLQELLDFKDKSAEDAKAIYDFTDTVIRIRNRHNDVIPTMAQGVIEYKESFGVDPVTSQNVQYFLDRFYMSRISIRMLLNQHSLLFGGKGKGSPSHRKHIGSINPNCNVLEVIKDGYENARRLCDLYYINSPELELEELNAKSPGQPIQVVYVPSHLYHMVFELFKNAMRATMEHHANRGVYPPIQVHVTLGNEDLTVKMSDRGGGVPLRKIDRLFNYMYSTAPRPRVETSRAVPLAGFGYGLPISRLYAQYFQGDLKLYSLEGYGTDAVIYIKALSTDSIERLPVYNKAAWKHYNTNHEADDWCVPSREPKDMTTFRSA
# method_notes: PDK-1 fluorescence polarization assay (fluorescein-labelled ATP site probe)
# Format: binding
# Set-up: PDK-1: residues 30-436; made in house; host or cells: E. coli BL21
# condition_context: titration with a probe concentration of 10 nM; read-out: Kd of PDK-1 protein with the probe
measured_property: pKd
Numbers only, as −log10 of the molar value.

`CCNC(=O)c1noc(-c2cc(Cl)c(O)cc2O)c1-c1ccc(CNC(=O)c2ccc(-c3c4ccc(=O)cc-4oc4cc(O)ccc34)c(C(=O)O)c2)cc1` has a reported pKd of 7.52

----------
# system_tested: PDK-1 (Homo sapiens)
# method_notes: Isothermal calorimetry (ITC) binding affinity
# Parameters: PDK-1: residues 30-436; made in house; host or cells: E. coli BL21
measured_property: pKd
Numbers only, as −log10 of the molar value.

C[C@@H]1CN(C(=O)[C@](C)(O)C(F)(F)F)[C@@H](C)CN1C(=O)c1ccc(C#N)cc1 [Nov3r, reference compound] has a reported pKd of 8.10
